# credit: patent US20240002497A1

Form field: EC50 (one value per entry).
test_target: T1, huNav1.7α (human, UniProt Q15858 1-1988)
T1 construct: HEK cells expressing the α subunit alone; also called HEKa; HEK huNav1.7α
experiment: binding FACS, HEKa cells

{"binder": "F010301350 (VHH, vs 387G05: D58V) VHH: EVQLVESGGGLVQAGGSLRLSCDASGRILRIGYMRWHRQGAGKQREFVARITDDSATVYADSVKGRFTISRDNAKNTVYLQMNNLNPEDTAVYYCEALVTASVRGGSIHSGTYWGRGTLVTVSS", "EC50, nM": 1.6}
{"binder": "F010301561 (VHH, vs 387G05: D23A, D53G) VHH: EVQLVESGGGLVQAGGSLRLSCAASGRILRIGYMRWHRQGAGKQREFVARITGDSATDYADSVKGRFTISRDNAKNTVYLQMNNLNPEDTAVYYCEALVTASVRGGSIHSGTYWGRGTLVTVSS", "EC50, nM": 2.2}
{"binder": "F010301372 (VHH, vs 387G05: S100dG) VHH: EVQLVESGGGLVQAGGSLRLSCDASGRILRIGYMRWHRQGAGKQREFVARITDDSATDYADSVKGRFTISRDNAKNTVYLQMNNLNPEDTAVYYCEALVTASVRGGGIHSGTYWGRGTLVTVSS", "EC50, nM": 2.5}
{"binder": "F0103387G05 (parental)-FLAG-HIS6 (VHH) VHH: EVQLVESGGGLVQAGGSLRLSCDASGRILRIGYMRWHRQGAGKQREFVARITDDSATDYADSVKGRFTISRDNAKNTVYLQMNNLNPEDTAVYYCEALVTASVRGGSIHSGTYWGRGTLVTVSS", "EC50, nM": 2.7}
{"binder": "F010301560 (VHH, vs 387G05: D53G, D54G, D58G) VHH: EVQLVESGGGLVQAGGSLRLSCDASGRILRIGYMRWHRQGAGKQREFVARITGGSATGYADSVKGRFTISRDNAKNTVYLQMNNLNPEDTAVYYCEALVTASVRGGSIHSGTYWGRGTLVTVSS", "EC50, nM": 1.2}
{"binder": "F010301564 (VHH, vs 387G05: D53G, D54G) VHH: EVQLVESGGGLVQAGGSLRLSCDASGRILRIGYMRWHRQGAGKQREFVARITGGSATDYADSVKGRFTISRDNAKNTVYLQMNNLNPEDTAVYYCEALVTASVRGGSIHSGTYWGRGTLVTVSS", "EC50, nM": 1.9}
{"binder": "F010301367 (VHH, vs 387G05: D53G) VHH: EVQLVESGGGLVQAGGSLRLSCDASGRILRIGYMRWHRQGAGKQREFVARITGDSATDYADSVKGRFTISRDNAKNTVYLQMNNLNPEDTAVYYCEALVTASVRGGSIHSGTYWGRGTLVTVSS", "EC50, nM": 2.2}
{"binder": "F010301558 (VHH, vs 387G05: D23A, D53G, D58G) VHH: EVQLVESGGGLVQAGGSLRLSCAASGRILRIGYMRWHRQGAGKQREFVARITGDSATGYADSVKGRFTISRDNAKNTVYLQMNNLNPEDTAVYYCEALVTASVRGGSIHSGTYWGRGTLVTVSS", "EC50, nM": 1.5}
